Biological target: Sialidase-3 (Homo sapiens, UniProt Q9UQ49)
Sequence (Q9UQ49 whole entry): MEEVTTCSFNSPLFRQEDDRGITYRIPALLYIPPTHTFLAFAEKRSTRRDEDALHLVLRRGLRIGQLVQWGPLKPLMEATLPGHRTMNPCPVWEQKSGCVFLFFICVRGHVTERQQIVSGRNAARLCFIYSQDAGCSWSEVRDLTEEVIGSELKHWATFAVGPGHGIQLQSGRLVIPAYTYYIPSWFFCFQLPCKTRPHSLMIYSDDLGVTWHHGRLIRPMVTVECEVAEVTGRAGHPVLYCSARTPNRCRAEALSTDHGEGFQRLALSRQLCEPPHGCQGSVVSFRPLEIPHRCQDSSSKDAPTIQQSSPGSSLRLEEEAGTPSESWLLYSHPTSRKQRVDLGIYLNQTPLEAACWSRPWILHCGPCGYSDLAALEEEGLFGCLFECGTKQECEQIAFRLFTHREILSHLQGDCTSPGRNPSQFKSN
Assay: Inhibition of human NEU3 expressed in HEK293A cells as substrate incubated for 1 hr by spectrofluorometric analysis
Set-up: species or system HEK293

{"structureString": "CCS[C@@]1(C(=O)O)C=C[C@@H](NC(C)=O)[C@H]([C@H](O)[C@H](O)CO)O1", "IC50": "> 1000 µM"}
{"structureString": "CCS[C@]1(C(=O)O)C=C[C@@H](NC(C)=O)[C@H]([C@H](O)[C@H](O)CO)O1", "IC50": "> 1000 µM"}
{"structureString": "CCCCO[C@@]1(C(=O)O)C=C[C@@H](NC(C)=O)[C@H]([C@H](O)[C@H](O)CO)O1", "IC50": "> 1000 µM"}
{"structureString": "CC(=O)N[C@@H]1C=C[C@](OC(C)C)(C(=O)O)O[C@H]1[C@H](O)[C@H](O)CO", "IC50": "> 1000 µM"}
{"structureString": "CCO[C@@]1(C(=O)O)C=C[C@@H](NC(C)=O)[C@H]([C@H](O)[C@H](O)CO)O1", "IC50": "> 1000 µM"}
{"structureString": "CC(=O)N[C@@H]1C=C[C@@](OC(C)C)(C(=O)O)O[C@H]1[C@H](O)[C@H](O)CO", "IC50": "> 1000 µM"}
{"structureString": "O=C(O)C1=C[C@H](O)[C@@H](NC(=O)C(F)(F)F)[C@H]([C@H](O)[C@H](O)CO)O1", "IC50": "3.9 µM"}
{"structureString": "CO[C@@]1(C(=O)O)C=C[C@@H](NC(C)=O)[C@H]([C@H](O)[C@H](O)CO)O1", "IC50": "> 1000 µM"}
{"structureString": "CCCCCCCCS[C@@]1(C(=O)O)C=C[C@@H](NC(C)=O)[C@H]([C@H](O)[C@H](O)CO)O1", "IC50": "> 1000 µM"}
{"structureString": "CCCO[C@@]1(C(=O)O)C=C[C@@H](NC(C)=O)[C@H]([C@H](O)[C@H](O)CO)O1", "IC50": "> 1000 µM"}
{"structureString": "CC(=O)N[C@H]1[C@H]([C@H](O)[C@H](O)CO)OC(C(=O)O)=C[C@@H]1O", "IC50": "2.4 µM"}
{"structureString": "CO[C@]1(C(=O)O)C=C[C@@H](NC(C)=O)[C@H]([C@H](O)[C@H](O)CO)O1", "IC50": "> 1000 µM"}

###

Reported pIC50 values for a set of compounds
Assay: Inhibition of Newcastle disease virus neuraminidase using 4-MUNeu5Ac as substrate incubated for 15 mins by spectrofluorometric analysis
Set-up: species or system avian paramyxovirus 1
pIC50: −log10 of the molar value.

{"structureString": "CCS[C@@]1(C(=O)O)C=C[C@@H](NC(C)=O)[C@H]([C@H](O)[C@H](O)CO)O1", "comparator": "=", "pIC50": 3.61}
{"structureString": "O=C(O)C1=C[C@H](O)[C@@H](NC(=O)C(F)(F)F)[C@H]([C@H](O)[C@H](O)CO)O1", "comparator": "=", "pIC50": 5.61}
{"structureString": "CO[C@]1(C(=O)O)C=C[C@@H](NC(C)=O)[C@H]([C@H](O)[C@H](O)CO)O1", "comparator": "<", "pIC50": 3.00}
{"structureString": "CCCCCCCCS[C@@]1(C(=O)O)C=C[C@@H](NC(C)=O)[C@H]([C@H](O)[C@H](O)CO)O1", "comparator": "=", "pIC50": 3.39}
{"structureString": "CCCO[C@@]1(C(=O)O)C=C[C@@H](NC(C)=O)[C@H]([C@H](O)[C@H](O)CO)O1", "comparator": "=", "pIC50": 3.29}
{"structureString": "CC(=O)N[C@@H]1C=C[C@@](OC(C)C)(C(=O)O)O[C@H]1[C@H](O)[C@H](O)CO", "comparator": "=", "pIC50": 3.83}
{"structureString": "CC(=O)N[C@@H]1C=C[C@](OC(C)C)(C(=O)O)O[C@H]1[C@H](O)[C@H](O)CO", "comparator": "=", "pIC50": 3.29}
{"structureString": "CC(=O)N[C@H]1[C@H]([C@H](O)[C@H](O)CO)OC(C(=O)O)=C[C@@H]1O", "comparator": "=", "pIC50": 4.89}
{"structureString": "CCO[C@@]1(C(=O)O)C=C[C@@H](NC(C)=O)[C@H]([C@H](O)[C@H](O)CO)O1", "comparator": "=", "pIC50": 3.42}
{"structureString": "[N-]=[N+]=N[C@H]1C=C(C(=O)O)O[C@@H]([C@H](O)[C@H](O)CO)[C@@H]1NC(=O)C(F)(F)C(F)(F)C(F)(F)F", "comparator": "=", "pIC50": 6.67}
{"structureString": "CO[C@@]1(C(=O)O)C=C[C@@H](NC(C)=O)[C@H]([C@H](O)[C@H](O)CO)O1", "comparator": "<", "pIC50": 3.00}
{"structureString": "CCS[C@]1(C(=O)O)C=C[C@@H](NC(C)=O)[C@H]([C@H](O)[C@H](O)CO)O1", "comparator": "=", "pIC50": 4.00}
{"structureString": "CCCCO[C@@]1(C(=O)O)C=C[C@@H](NC(C)=O)[C@H]([C@H](O)[C@H](O)CO)O1", "comparator": "=", "pIC50": 3.31}

Data credit: ChEMBL document CHEMBL4725258
